Target: T1, extracellular domain (ECD) of recombinant human Sortilin with a C-terminal HIS tag (ECD-huSortilin-HIS) (human, UniProt Q99523 78-755)
T1 construct: Bought (R&D Systems); also called human sortilin-ECD; not shown: C-terminal HIS tag
T1 sequence: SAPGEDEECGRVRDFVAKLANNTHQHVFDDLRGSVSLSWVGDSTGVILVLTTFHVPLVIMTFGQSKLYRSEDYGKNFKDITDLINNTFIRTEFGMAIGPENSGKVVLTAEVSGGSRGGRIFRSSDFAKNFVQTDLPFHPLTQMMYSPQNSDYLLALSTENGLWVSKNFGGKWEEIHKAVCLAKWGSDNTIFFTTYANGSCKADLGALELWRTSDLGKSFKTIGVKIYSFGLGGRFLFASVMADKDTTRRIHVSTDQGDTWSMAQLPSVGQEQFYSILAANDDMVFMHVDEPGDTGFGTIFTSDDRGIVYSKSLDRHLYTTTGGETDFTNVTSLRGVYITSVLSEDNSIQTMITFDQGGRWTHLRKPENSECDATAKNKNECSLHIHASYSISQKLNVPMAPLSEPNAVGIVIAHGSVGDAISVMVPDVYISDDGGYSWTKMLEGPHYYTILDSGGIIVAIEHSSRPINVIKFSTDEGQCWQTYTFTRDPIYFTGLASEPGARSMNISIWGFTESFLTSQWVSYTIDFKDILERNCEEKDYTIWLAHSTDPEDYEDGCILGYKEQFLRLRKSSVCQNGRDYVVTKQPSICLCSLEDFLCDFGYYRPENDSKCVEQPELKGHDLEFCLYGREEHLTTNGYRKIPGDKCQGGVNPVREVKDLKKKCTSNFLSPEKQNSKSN
Assay: SPR (Biacore T200), mAb captured by anti-mouse antibody on CM5, Sortilin 0.1-300 nM as analyte, global 1:1 fit
Consider the following binders and their measured pKd readings.
The scale used: pKd is minus the common logarithm of the concentration in molar units.

Known results for binders:
binder	pKd
mouse monoclonal antibody 2P22 (antibody, mouse IgG2b, V domains shown, mouse IgG2b, kappa) VH: EVQLVESGGDLVKPGGSLKLSCAASGFTFSIYGMSWVRQTPDKKLEWVAAISSGGIYTYYPDSVKGRFTISRDNAKNTLYLQMSSLKSADTAMYYCTRNDYDWFAYWGQGTLVTVSA VL: DIQMTQSPSSLSASLGERVSLTCRASQDIGSSLNWLQQEPDGTIKRLIYATSSLDSGVPKRFSGSRSGSDYSLTISSLESEDFVDYYCLQYASSPYTFGGGTKLEIK	8.66
mouse monoclonal antibody 6B15 (antibody, mouse IgG1, V domains shown, mouse IgG1, kappa) VH: EVQLVESGGDLVKPGGSLKLSCAAPGFTFSTYGMSWVRQTPDKRLEWVAIISSGGSYTYYSDTVKGRFTISRDNAKNTLNLQMSSLKSEDTAMYFCSRSSSHWYFDVWGTGTTVTVSS VL: DILMTQFPSSMSVSLGDTVSITCHASQGISSNIGWLQQKPGKSFKGLIYHGTNLKDGVPSRFSGSGSGTDFSLTISSLESEDFADYYCVQYAQFPYTFGGGTKLEKR	8.99

Please examine the following record next.
Prompt line: Entry mouse monoclonal antibody 11M14 (antibody, mouse IgG1, V domains shown, mouse IgG1, kappa; also called ms11M14) VH: EVQLVESGGDLVKPGGSLKLSCAASGFTFNIYGMSWVRQTPDKRLEWVATISSGGIYTYYPDILKGRFTISRDNAKNTLYLQMSSLKSEDTAMYYCARHPGGAMDYWGQGTSVTVSS VL: DIQMTQSPASLSVSVGETVTITCRVSENIYSNLAWYQQKQGKSPHLLVYAATNLADGVPSRFSGSGSGTQYSLKINSLQSEDFGSYYCQHFWGTPPWTFGGGTKLEIK : reported pKd = ?
Response line: 8.20
